Measurement Target: human ether-à-go-go-related gene (hERG) potassium channel (human)
Procedure Text: primary screen, population patch clamp on CHO cells stably expressing hERG; higher = less effect of the substance
Screen size: about 310,000 compounds; about 14,000 (4.5%) showed an effect of 50% or more. The effect is printed as a negative number. Shown is part of a subset that was picked to be rich in strong results.
Assay Readout: hERG current change (%, negative = inhibition) at 10uM (%)

{"Compound": "CCN(CC(=O)Nc1ccc(Br)c(C)c1)CC(=O)NC(C)C", "Unit Info": "%", "Measured Number": -4.86}
{"Compound": "COc1ccc(-c2cn(CCN)c(-c3ccncc3)n2)cc1", "Unit Info": "%", "Measured Number": 5.87}
{"Compound": "CS(=O)(=O)c1ccc(NC(=O)c2cccc(-n3cnnn3)c2)cc1", "Unit Info": "%", "Measured Number": 12.1}
{"Compound": "CN(C)CCCN1C(=O)c2cccc3c(Br)ccc(c23)C1=O", "Unit Info": "%", "Measured Number": -66.4}
{"Compound": "CCOC(=O)C1C(c2ccc(O)c(OCC)c2)NC(=S)NC1(O)C(F)(F)F (centres unmarked)", "Unit Info": "%", "Measured Number": -12.5}

* * *

Measurement Target: human ether-à-go-go-related gene (hERG) potassium channel (human, UniProt Q12809);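 note: peak tail current of the secondary pulse compared with the same well before compound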
Sequence (Q12809 whole entry, looked up): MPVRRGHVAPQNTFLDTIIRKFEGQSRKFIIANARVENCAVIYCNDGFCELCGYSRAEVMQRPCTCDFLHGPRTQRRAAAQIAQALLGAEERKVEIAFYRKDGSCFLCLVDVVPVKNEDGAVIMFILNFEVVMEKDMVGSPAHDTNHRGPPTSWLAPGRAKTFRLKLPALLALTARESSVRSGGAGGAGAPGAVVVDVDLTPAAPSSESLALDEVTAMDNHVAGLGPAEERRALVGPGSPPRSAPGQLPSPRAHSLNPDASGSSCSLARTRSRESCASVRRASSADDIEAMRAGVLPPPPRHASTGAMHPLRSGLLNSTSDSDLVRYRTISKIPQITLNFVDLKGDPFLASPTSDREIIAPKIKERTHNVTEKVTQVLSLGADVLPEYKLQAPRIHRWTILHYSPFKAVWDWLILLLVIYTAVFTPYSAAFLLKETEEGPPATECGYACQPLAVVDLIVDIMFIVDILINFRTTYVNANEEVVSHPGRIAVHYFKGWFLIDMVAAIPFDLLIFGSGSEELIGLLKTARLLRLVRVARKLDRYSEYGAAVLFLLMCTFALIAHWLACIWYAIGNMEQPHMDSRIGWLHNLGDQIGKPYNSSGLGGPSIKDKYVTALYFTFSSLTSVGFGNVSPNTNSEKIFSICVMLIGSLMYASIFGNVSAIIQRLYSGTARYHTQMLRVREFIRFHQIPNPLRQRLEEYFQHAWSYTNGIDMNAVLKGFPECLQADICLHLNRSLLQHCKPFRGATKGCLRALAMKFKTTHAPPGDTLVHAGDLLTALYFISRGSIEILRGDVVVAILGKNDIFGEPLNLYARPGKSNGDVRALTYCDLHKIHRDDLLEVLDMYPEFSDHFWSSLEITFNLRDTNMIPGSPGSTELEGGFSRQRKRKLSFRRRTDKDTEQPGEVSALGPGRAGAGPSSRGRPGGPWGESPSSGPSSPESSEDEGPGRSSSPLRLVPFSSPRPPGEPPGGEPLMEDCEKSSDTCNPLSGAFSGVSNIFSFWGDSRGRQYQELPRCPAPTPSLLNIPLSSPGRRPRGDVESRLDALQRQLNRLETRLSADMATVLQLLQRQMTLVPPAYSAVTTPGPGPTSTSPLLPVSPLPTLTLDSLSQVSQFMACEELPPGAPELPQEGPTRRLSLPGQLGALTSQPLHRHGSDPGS
Procedure Text: primary screen, population patch clamp on CHO cells stably expressing hERG; higher = less effect of the substance
Procedure: Briefly, Chinese hamster ovary (CHO) cells stably expressing the hERG channel were dislodged from tissue culture flasks and dispensed into PPC plates. […] During the recording, background leak currents were estimated by a 100 ms step to -80 mV from an initial holding potential of -70 mV and subtracted from the subsequent current measurement. The campaign was conducted in two phases using slight differences in recording protocol. […]
Among all 310,000 compounds or so, about 14,000 (4.5%) showed an effect of 50% or more. The effect is printed as a negative number. The sample as a whole holds a higher share of strong results than the screen did.
Assay Readout: hERG current change (%, negative = inhibition) at 10uM (%)

{"Compound": "CCOC(=O)CSc1nnc(CCc2nc3ccccc3[nH]2)n1C", "Unit Info": "%", "Measured Number": -0.184}
{"Compound": "COCCN(C(=S)Nc1cccc(Cl)c1C)C(C)c1ccco1 (stereo not shown)", "Unit Info": "%", "Measured Number": -15.4}
{"Compound": "Cc1ccc(S(=O)(=O)N2CCC(C(=O)OCc3c(C)noc3C)CC2)cc1C", "Unit Info": "%", "Measured Number": -15.8}
{"Compound": "COc1ccccc1NC(=O)COn1nnc2ccc(S(=O)(=O)N3CCOCC3)cc21", "Unit Info": "%", "Measured Number": 4.92}
{"Compound": "Cc1ccccc1NC(=S)N(CCN(C)C)C(C)c1ccco1 (stereo not shown)", "Unit Info": "%", "Measured Number": -12.1}
{"Compound": "Cc1c(Cl)cccc1NC(=S)N(CCCN1CCOCC1)Cc1ccco1", "Unit Info": "%", "Measured Number": -43.9}
{"Compound": "CCN1CCN(CCCN(Cc2ccco2)C(=S)Nc2cccc(Cl)c2C)CC1", "Unit Info": "%", "Measured Number": -61.2}
{"Compound": "COc1cccc(/C=C/C(=O)OCC(=O)c2c[nH]c3ccccc23)c1OC", "Unit Info": "%", "Measured Number": 9.29}
{"Compound": "Cc1cc(C)nc(-n2nc(C)cc2NC(=O)CNC(C)c2ccccc2)n1 (stereo not shown)", "Unit Info": "%", "Measured Number": -62.2}
{"Compound": "O=C(Nc1ccccc1F)c1ccccc1-c1ccc(C(F)(F)F)cc1", "Unit Info": "%", "Measured Number": -5.12}

* * *

Recorded hERG current change (%, negative = inhibition) at 10uM by entry
Measurement Target: human ether-à-go-go-related gene (hERG) potassium channel (human);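 note: peak tail current of the secondary pulse compared with the same well before compound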
Procedure Text: primary screen, population patch clamp on CHO cells stably expressing hERG; higher = less effect of the substance
Among all 310,000 compounds or so, about 14,000 (4.5%) showed an effect of 50% or more. Effects have a minus sign here. The sample as a whole holds a higher share of strong results than the screen did.
Assay Readout: hERG current change (%, negative = inhibition) at 10uM (%)

{"Structure String": "CCOC(=O)Cc1csc(NC(=O)c2cccc(Cl)c2)n1", "Measured Number": -13}
{"Structure String": "COCCNC(=O)CSc1nc2ccc(N3CCOCC3)cc2c(=O)n1Cc1ccc(OC)cc1", "Measured Number": -22.4}
{"Structure String": "CCCc1nc(SCC(=O)Nc2nnc(SCC)s2)c2c(=O)n(C)c(=O)n(C)c2n1", "Measured Number": 3.68}
{"Structure String": "CCCCn1c(SCC(=O)NCCOC)nc2ccc(N3CCOCC3)cc2c1=O", "Measured Number": -2.94}
{"Structure String": "COc1cccc(OCc2cc(C(=O)N3CCN(c4ccccc4OC)CC3)no2)c1", "Measured Number": 6.19}
{"Structure String": "COCCNC(=O)CSc1nc2ccc(N3CCOCC3)cc2c(=O)n1CCc1ccccc1", "Measured Number": -55.1}
{"Structure String": "COCCCNC(=O)CSc1nc2ccc(N3CCOCC3)cc2c(=O)n1CCc1ccccc1", "Measured Number": -59.8}
{"Structure String": "CCN(CCCNC(=O)CN1C(=O)COc2ccccc21)c1cccc(C)c1", "Measured Number": -11.3}
{"Structure String": "Cn1cccc1/C=C1\\SC(=O)N(c2ccc(O)cc2)C1=O", "Measured Number": 0.777}

* * *

Recorded hERG current change (%, negative = inhibition) at 10uM by entry
Measurement Target: human ether-à-go-go-related gene (hERG) potassium channel (human);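 note: peak tail current of the secondary pulse compared with the same well before compound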
Procedure Text: primary screen, population patch clamp on CHO cells stably expressing hERG; higher = less effect of the substance
Hit rate of the full screen: of about 310,000 compounds, about 14,000 (4.5%) showed an effect of 50% or more. Effects have a minus sign here. Many of the other results were omitted from the sample, so strong results are more common in it than they were.
Assay Readout: hERG current change (%, negative = inhibition) at 10uM (%)

{"Compound": "CCC1CCCCN1C(=O)c1cccc(S(=O)(=O)Nc2cc(C(F)(F)F)ccc2Cl)c1 (centres unmarked)", "Measured Number": 2.59}
{"Compound": "S=C(NCc1cccnc1)Nc1cccc2ccccc12", "Measured Number": -9.3}
{"Compound": "COc1ccc(N2CCN(C(C)C(=O)N3CC(C)OC(C)C3)CC2)cc1.O=C(O)C(=O)O (centres unmarked)", "Measured Number": 18}
{"Compound": "S=c1[nH]nc(-c2ccc(Br)cc2)n1-c1ccc(Br)cc1", "Measured Number": 12.2}
{"Compound": "CN1CC(=O)N(CC(=O)Nc2ccc(Cl)c(C(F)(F)F)c2)C1=O", "Measured Number": 8.97}

* * *

Measurement Target: human ether-à-go-go-related gene (hERG) potassium channel (human, UniProt Q12809);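 note: peak tail current of the secondary pulse compared with the same well before compound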
Procedure Text: primary screen, population patch clamp on CHO cells stably expressing hERG; higher = less effect of the substance
Screen size: about 310,000 compounds; about 14,000 (4.5%) showed an effect of 50% or more. The effect is printed as a negative number. Many of the other results were omitted from the sample, so strong results are more common in it than they were.
Recorded hERG current change (%, negative = inhibition) at 10uM by entry
Assay Readout: hERG current change (%, negative = inhibition) at 10uM (%)

{"Compound": "COc1ccc(CN2CCN(c3ncccn3)CC2)c(C)c1C", "Unit Info": "%", "Measured Number": -35.9}
{"Compound": "CC(C)N1CC(O)=C(c2ccccc2)C1=N", "Unit Info": "%", "Measured Number": -0.355}
{"Compound": "COc1ccc(CN2CCN(c3ccccn3)CC2)c(OC)c1C.O=C(O)C(=O)O", "Unit Info": "%", "Measured Number": -37.1}
{"Compound": "COC(=O)c1ccc(Oc2cc(C)nc(Cl)n2)cc1", "Unit Info": "%", "Measured Number": 13.9}
{"Compound": "COc1ccc(CN2CCN(Cc3ccccc3)CC2)c(OC)c1", "Unit Info": "%", "Measured Number": -69.9}
{"Compound": "CCOC(=O)c1c(C)sc(Sc2ccc(Cl)cc2[N+](=O)[O-])c1OC", "Unit Info": "%", "Measured Number": 11.3}
{"Compound": "COc1ccc(CN2CCN(c3ccccn3)CC2)c(OC)c1C.O=C([O-])C(=O)[O-]", "Unit Info": "%", "Measured Number": -55.8}
{"Compound": "CCN1CCN(C(C)CCc2ccccc2)CC1 (centres unmarked)", "Unit Info": "%", "Measured Number": -17.7}
{"Compound": "CCCCNC(=O)COC(=O)c1ccc(F)cc1Cl", "Unit Info": "%", "Measured Number": -10.8}
{"Compound": "CC(CCc1ccccc1)N1CCN(Cc2ccccc2)CC1 (centres unmarked)", "Unit Info": "%", "Measured Number": -75.2}
{"Compound": "COc1cccc(CNS(=O)(=O)c2c(C(=O)N3CCCCC3)c(C)n(C)c2C)c1", "Unit Info": "%", "Measured Number": 9.63}
